Where do these numbers come from? They come from patent US20230348616A1.

Target: T1, HLA-A*0201/β2-microglobulin/NY-ESO peptide complex (human, biotinylated with E. coli biotin ligase at the added recognition sequence (biotinylated form used in the ELISA))
T1 construct: also called HLA/NY-ESO; HLA-A2/NY-ESO
Assay: SPR (Biacore T200), scFv captured by anti-His antibody, HLA/NY-ESO as analyte, single cycle kinetics
The entries below come with measured pKd values attached.
Recall that pKd is obtained by taking minus log10 of the concentration measured in molar.

{"binder": "NYA-2060 (scFv, also called NYA-2060 tag adduct) scFv: GEVQLVESGGGLVQPGGSLRLSCAASGFSIRSYDIHWVRQAPGKGLEWVATISYDGSQKYYADSVKGRFTISRDESKNTLYLQMNSLRAEDTAVYHCARGSSGHYEAFDIWGQGTLVTVSSGGGGSGGGGSGGGGSQSVLTQPPSVSAAPGQKVTISCSGSSSNIGNWYVSWYQQLPGTAPKLLIYDNNKRPSGIPDRFSGSKSGTSATLGITGLQTGDEADYYCGTWDSSLSAPWVFGGGTKVTVLGAAAGAGGDYKDDDDKGAAAHHHHHH", "pKd": 8.96}

Consider now this further binder.
Return reported pKd. Input binder: NYA-2023 (scFv) scFv: GEVQLVESGGGVVQPGRSLTPSCSASGFSIRSYDIHWVRQAPGKGLEWVATISYDGSQKYFADSVKGRFTIFRDESENMVYLQMSGLRVEDTAVYHCARGSSGHYEAFDIWGQGTMVTVSSGGGGSGGGGSGGGGSQSVLTQPPSVSAAPGQKVTISCSGSSSNIGNWYVSWYQQLPGTAPKLLIYDNNKRPSGIPDRFSGSKSGTSATLGITGLQTGDEADYYCGTWDSSLSAPWVFGGGTKVTVLGAAAGAGGDYKDDDDKGAAAHHHHHH
8.62
